Value source: patent US20130274178A1

- targetOfAssay: T1, HIV-1YU2 gp120 (HIV-1 strain YU-2, UniProt P35961 32-498, limits assumed)
- T1 construct: domain: gp120
- procedureText: SPR competition; gp120 binding to mAb 17b; Example 8, Table 9
Where no end group is shown, it is not given here. [ ]: non-standard residue; d: D form.
measuredParameter: IC50 (µM)
Please give a number only; it is taken to be in µM.

// NNI[Azp‑triazole‑ferrocene]WS-NH2 (Rink amide resin; also called NNIPWS) [UM31] : IC50 value = 16
